// DcR3-His binding, % of irrelevant mAb lookup, one value per entry
Biological target: T1, human LIGHT (TNFSF14), full length, membrane-bound (214E allele) (human, UniProt O43557 1-240)
T1 construct: also called membrane LIGHT; human membrane LIGHT
T1 sequence (O43557 whole entry K214E): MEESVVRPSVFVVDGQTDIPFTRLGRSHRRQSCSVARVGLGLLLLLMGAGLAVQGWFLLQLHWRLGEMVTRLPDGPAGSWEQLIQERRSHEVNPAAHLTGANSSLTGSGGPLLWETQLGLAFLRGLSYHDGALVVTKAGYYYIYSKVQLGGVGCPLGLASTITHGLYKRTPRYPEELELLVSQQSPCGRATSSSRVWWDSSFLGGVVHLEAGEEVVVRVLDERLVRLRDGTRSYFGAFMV
Assay: DcR3-His (1 nM) competition, EL4-LIGHT, flow cytometry; 1.23 nM
Quick reminder: number only, in %, skip the unit.

{"BINDER": "2B11 (antibody, human IgG4, V domains shown, chimeric human IgG4 (S-to-P, L-to-E at 248), human CL; also called Parental 2B11) VH: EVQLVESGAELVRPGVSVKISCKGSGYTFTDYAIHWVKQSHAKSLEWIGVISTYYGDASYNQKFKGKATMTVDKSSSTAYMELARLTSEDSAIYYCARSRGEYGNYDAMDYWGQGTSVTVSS VL: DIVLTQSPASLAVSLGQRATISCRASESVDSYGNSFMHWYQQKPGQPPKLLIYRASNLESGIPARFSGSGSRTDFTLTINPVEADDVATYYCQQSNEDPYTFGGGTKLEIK", "MEASURE": "DcR3-His binding, % of irrelevant mAb", "REPORTED RESULT": 115}

**Query** Give DcR3-His binding, % of irrelevant mAb for 3A07 (antibody, human IgG4, V domains shown, chimeric human IgG4 (S-to-P, L-to-E at 248), human CL; also called Parental 3A07) VH: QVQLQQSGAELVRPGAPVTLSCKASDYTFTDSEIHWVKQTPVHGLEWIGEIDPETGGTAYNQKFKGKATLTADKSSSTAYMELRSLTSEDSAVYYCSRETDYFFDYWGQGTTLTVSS VL: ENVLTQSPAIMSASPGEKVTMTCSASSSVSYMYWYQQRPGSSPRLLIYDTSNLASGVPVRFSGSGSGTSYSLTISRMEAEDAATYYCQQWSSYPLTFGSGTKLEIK
**Result** 90.6
